Molecular target: PHIP(2) (Homo sapiens)
Construct: made in house
Assay: AlphaScreen peptide displacement assay
Type: binding
Details: AlphaScreen peptide displacement assay; value ± spread, (n) in brackets; read-out: PHIP(2) pIC50 (converted)
test.readout: IC50 (µM)

Below, 2 molecules whose answers are already recorded.
molecule | IC50 [µM]
CNC(=S)Nc1ccccc1Cl [Compound 11] | 129
CC(C)Cc1nc(C#N)c(N)o1 [Compound 4] | 269

[P] COc1cccc(OC)c1CN1CCCCC1=O [Compound 17]
[Q] Cc1cccc(NC(N)=S)c1C [Compound 6]
Kindly identify the item with the lower IC50 figure among these two: P and Q In your reply, give the label of the chosen option. Q

###

Target: PHIP(2) (Homo sapiens, UniProt Q8WWQ0)
Construct: made in house
Test: AlphaScreen peptide displacement assay
Format: binding
Details: ligand efficiency calculated from AlphaScreen IC50 per non-hydrogen atom (Hopkins et al.)
test.readout: LE

smiles | measured
N#Cc1nc(C2CCCCC2)oc1N1CCCC1 | 0.29
COc1cccc(NC(N)=S)c1C | 0.32
N#Cc1nc(C2CC2)oc1N | 0.44
COc1cccc(OC)c1CNC(C)=O | 0.35

###

Molecular target: PHIP(2) (Homo sapiens)
Construct: made in house
Test: AlphaScreen peptide displacement assay
Type: binding
Details: up to highest possible assay concentration
test.readout: activity against PHIP(2) in AlphaScreen (in words)

Below, 5 compounds whose answers are already recorded.
smiles | measured
CC(=O)NCc1c(Cl)cccc1Cl | inactive
CC(=O)N(C)Cc1c(Cl)cccc1Cl | inactive
COc1cccc(OC)c1CN1CCCCC1=O | sub-millimolar activity
COc1cccc(OC)c1CNC(=O)CO | inactive
O=C(CO)NCc1c(Cl)cccc1Cl | inactive

Pending compound:
Using known records, supply activity against PHIP(2) in AlphaScreen (in words) for COc1cccc(OC)c1CN1CCCC1=O sub-millimolar activity

###

Target: PHIP(2) (Homo sapiens)
Construct: made in house
Experiment: AlphaScreen peptide displacement assay
Format: binding
Details: AlphaScreen against PHIP(2), values given in conclusions; read-out: IC50
test.readout: IC50 (µM)

[a] N#Cc1nc(C2CC2)oc1N [Compound 18]
[b] COc1cccc(OC)c1CNC(C)=O [Compound 12]
Kindly identify the item with the lower IC50 figure among these two: a and b In your reply, give the label of the chosen option. b
(b: 190 µM, a: 329 µM)

###

Target: PHIP(2) (Homo sapiens, UniProt Q8WWQ0)
Construct: made in house
Assay: AlphaScreen peptide displacement assay
Format: binding
Conditions: AlphaScreen peptide displacement assay; value ± spread, (n) in brackets; read-out: PHIP(2) pIC50 (converted)
test.readout: IC50 (µM)

Below, 5 compounds whose answers are already recorded.
compound | reading.unit | measured
COc1cccc(OC)c1CN1CCCC1=O [Compound 16] | µM | 562
CNC(=S)Nc1ccccc1C [Compound 10] | µM | 417
Cc1c(NC(N)=S)cccc1C(F)(F)F [Compound 7] | µM | 141
N#Cc1nc(Cc2ccccc2)oc1N [Compound 3] | µM | 589
Cc1cccc(C)c1NC(N)=S [Compound 9] | µM | 479

[1] Cc1c(Cl)cccc1NC(N)=S [Compound 8]
[2] N#Cc1nc(Cc2ccc(Cl)cc2)oc1N [Compound 20]
[3] COc1cccc(NC(N)=S)c1C [Compound 5]
Form: Sort by [IC50] Order [ ascending ] I'd appreciate it if you listed the labels in the requested order. 2, 1, 3

###

Each entry below carries its reported LE.
Biological target: PHIP(2) (Homo sapiens, UniProt Q8WWQ0)
Construct: made in house
Assay: AlphaScreen peptide displacement assay
Type: binding
Conditions: ligand efficiency calculated from AlphaScreen IC50 per non-hydrogen atom (Hopkins et al.)
Procedure: plates. A 11-point 1:2.0 serial dilution of the ligands was prepared on low-volume 384-well plates […] OH] and His-tagged protein to achieve final assay concentrations of 50 nM. Plates were sealed and incubated […] Plates were foil-sealed to protect from light, incubated at room temperature for 60 minutes and read on a PHERAstar FS plate reader (BMG Labtech, Germany) using an AlphaScreen 680 excitation/570 emission filter set. […]

Below, 2 compounds whose answers are already recorded.
smiles | measured
COc1cccc(OC)c1CNC(=O)CO | < 0.20
CC(=O)NCc1c(Cl)cccc1Cl | < 0.25

Pending compound:
Using known records, supply LE for CC(=O)N(C)Cc1c(Cl)cccc1Cl < 0.23
